- assay_target: T1, AFP158/HLA-A*02:01 complex (human)
- T1 construct: biotinylated on the BSP by BirA for ELISA and panning; also called biotinylated AFP158/HLA-A*02:01 complex; Bio-AFP158
- test_description: SPR, crude scFv captured;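 note: Peptide–MHC complex flowed at several concentrations over sensorchip-captured scFv, Kd derived from on- and off-rates obtained from the association and dissociation curves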
pKd: −log10 of the molar value.
Entry flag: y if pKd reaches 7; n if it does not.

>>> group("AS170036 VL1VH1-VHG108A (scFv) scFv: QSALTQPRSVSGSPGQSVTISCAGTSSDVGSENYVSWYQQHPGKAPKLMIYQVNKRASGVPDRFSGSKSGNTASLTISGLQAEDEADYYCASYRSSDHNIVFGGGTKLTVLGGGGSGGGGSGGGGSEVQLVESGGGLVQPGGSLRLSCAASGFTFSSYAMSWVRQAPGKGLEWVSTINSGTGSPYYADSVKGRFTISRDNSKNTLYLQMNSLRAEDTAVYYCAKNFFDGSWFLAPPAMDYWGQGTLVTVSSHHHHHH")
"y"
>>> group("AS170036 VL1VH1 HS57D (scFv) scFv: QSALTQPRSVSGSPGQSVTISCAGTSSDVGSENYVSWYQQHPGKAPKLMIYQVNKRASGVPDRFSGSKSGNTASLTISGLQAEDEADYYCASYRSSDHNIVFGGGTKLTVLGGGGSGGGGSGGGGSEVQLVESGGGLVQPGGSLRLSCAASGFTFSSYAMSWVRQAPGKGLEWVSTINSGTGDPYYADSVKGRFTISRDNSKNTLYLQMNSLRAEDTAVYYCAKNFFDGSWFLGPPAMDYWGQGTLVTVSSHHHHHH")
"n"
>>> group("AS170036 VL1VH1-VHS57H (scFv) scFv: QSALTQPRSVSGSPGQSVTISCAGTSSDVGSENYVSWYQQHPGKAPKLMIYQVNKRASGVPDRFSGSKSGNTASLTISGLQAEDEADYYCASYRSSDHNIVFGGGTKLTVLGGGGSGGGGSGGGGSEVQLVESGGGLVQPGGSLRLSCAASGFTFSSYAMSWVRQAPGKGLEWVSTINSGTGHPYYADSVKGRFTISRDNSKNTLYLQMNSLRAEDTAVYYCAKNFFDGSWFLGPPAMDYWGQGTLVTVSSHHHHHH")
"y"
>>> group("AS170036 VL1VH1 HP110L (scFv) scFv: QSALTQPRSVSGSPGQSVTISCAGTSSDVGSENYVSWYQQHPGKAPKLMIYQVNKRASGVPDRFSGSKSGNTASLTISGLQAEDEADYYCASYRSSDHNIVFGGGTKLTVLGGGGSGGGGSGGGGSEVQLVESGGGLVQPGGSLRLSCAASGFTFSSYAMSWVRQAPGKGLEWVSTINSGTGSPYYADSVKGRFTISRDNSKNTLYLQMNSLRAEDTAVYYCAKNFFDGSWFLGPLAMDYWGQGTLVTVSSHHHHHH")
"n"
>>> group("AS170036 VL1VH1 HP58V (scFv) scFv: QSALTQPRSVSGSPGQSVTISCAGTSSDVGSENYVSWYQQHPGKAPKLMIYQVNKRASGVPDRFSGSKSGNTASLTISGLQAEDEADYYCASYRSSDHNIVFGGGTKLTVLGGGGSGGGGSGGGGSEVQLVESGGGLVQPGGSLRLSCAASGFTFSSYAMSWVRQAPGKGLEWVSTINSGTGSVYYADSVKGRFTISRDNSKNTLYLQMNSLRAEDTAVYYCAKNFFDGSWFLGPPAMDYWGQGTLVTVSSHHHHHH")
"n"
